The reported numbers originate from patent US20090186868A1.

Examples of molecules with documented Solubility (μg/mL) pH 6.8 follow.
# protocol: Solubility in first and second solution for disintegration test (Japanese Pharmacopoeia)
# Type: physicochemical
# condition_set: second solution for disintegration test, pH 6.8, room temperature, 12 hours or longer
Supply the numeric figure in μg/mL, leaving out any unit text.

molecule: CC(=O)OC12COC1CCC1(C)C3OC(CN4CCC4)OC3C3=C(C)C(OC(=O)C(O)C(CF)NC(=O)OC(C)(C)C)CC(O)(C(OC(=O)c4ccccc4)C12)C3(C)C (stereo not shown) [Example 34]
display_unit: μg/mL
Solubility (μg/mL) pH 6.8: 310
//
molecule: CC[C@H](NC(=O)OC(C)(C)C)[C@@H](O)C(=O)O[C@H]1C[C@@]2(O)[C@@H](OC(=O)c3ccccc3)[C@H]3[C@@](C)(CC[C@H]4OC[C@]43OC(C)=O)[C@@H]3O[C@H](CN4CCC4)O[C@@H]3C(=C1C)C2(C)C [Example 37]
display_unit: μg/mL
Solubility (μg/mL) pH 6.8: 210
//
molecule: CC(=O)O[C@@]12CO[C@@H]1CC[C@@]1(C)[C@@H]3O[C@H](CN4CCC4)O[C@@H]3C3=C(C)[C@@H](OC(=O)[C@H](O)[C@@H](NC(=O)OC(C)(C)C)c4ncco4)C[C@@](O)([C@@H](OC(=O)c4ccccc4)[C@@H]12)C3(C)C [Example 41]
display_unit: μg/mL
Solubility (μg/mL) pH 6.8: 370

Let's switch to this molecule now.
query: Look up and state reported Solubility (μg/mL) pH 6.8 for CC(=O)O[C@@]12CO[C@@H]1CC[C@@]1(C)[C@@H]3O[C@H](CN4CCC4)O[C@@H]3C3=C(C)[C@@H](OC(=O)[C@H](O)[C@@H](NC(=O)OC(C)(C)C)C(F)F)C[C@@](O)([C@@H](OC(=O)c4ccccc4)[C@@H]12)C3(C)C [Example 31]
result: 160

* * *

# Test system: HCT-15 (P glycoprotein (P-gp) expressing human colon cancer cell line)
Please note: GI50 exactly at 2 ng/mL is NOT MET. Only values below 2 ng/mL get MET.

molecule: CC(=O)O[C@@]12CO[C@@H]1CC[C@@]1(C)[C@@H]3O[C@H](CN4CC(O)C4)O[C@@H]3C3=C(C)[C@@H](OC(=O)[C@H](O)[C@@H](NC(=O)OC(C)(C)C)c4ncccc4F)C[C@@](O)([C@@H](OC(=O)c4ccccc4)[C@@H]12)C3(C)C
target_desc: HCT-15 (P glycoprotein (P-gp) expressing human colon cancer cell line)
classification: NOT MET

Shifting focus to the molecule that follows.
query: Is it true that GI50 reported for CC(=O)O[C@@]12CO[C@@H]1CC[C@@]1(C)[C@@H]3O[C@H](CN4CCC4)O[C@@H]3C3=C(C)[C@@H](OC(=O)[C@H](O)[C@@H](NC(=O)OC(C)(C)C)c4ccccn4)C[C@@](O)([C@@H](OC(=O)c4ccccc4)[C@@H]12)C3(C)C is less than 2 ng/mL?
result: MET

* * *

# protocol: Solubility in first and second solution for disintegration test (Japanese Pharmacopoeia)
# Type: physicochemical
# condition_set: aqueous buffer, thermodynamic from solid; second solution for disintegration test, pH 6.8, room temperature, 12 hours or longer; read-out: Solubility (μg/mL) pH 6.8
Examples of compounds with documented solubility follow.

smi: CC(=O)O[C@@]12CO[C@@H]1CC[C@@]1(C)[C@@H]3O[C@H](CN4CC[C@H]4CO)O[C@@H]3C3=C(C)[C@@H](OC(=O)[C@H](O)[C@@H](NC(=O)OC(C)(C)C)c4ncccc4F)C[C@@](O)([C@@H](OC(=O)c4ccccc4)[C@@H]12)C3(C)C
solubility: 85 µg/mL

query: Look up and state reported solubility for CC(=O)O[C@@]12CO[C@@H]1CC[C@@]1(C)[C@@H]3O[C@H](CN4CCC4)O[C@@H]3C3=C(C)[C@@H](OC(=O)[C@H](O)[C@@H](NC(=O)OC(C)(C)C)c4nccs4)C[C@@](O)([C@@H](OC(=O)c4ccccc4)[C@@H]12)C3(C)C
result: 150 µg/mL

query: Look up and state reported solubility for CC(=O)O[C@@]12CO[C@@H]1CC[C@@]1(C)[C@@H]3O[C@H](CN4CC(S(C)(=O)=O)C4)O[C@@H]3C3=C(C)[C@@H](OC(=O)[C@H](O)[C@@H](NC(=O)OC(C)(C)C)c4ncccc4F)C[C@@](O)([C@@H](OC(=O)c4ccccc4)[C@@H]12)C3(C)C
result: 18 µg/mL

query: Look up and state reported solubility for CC(=O)O[C@@]12CO[C@@H]1CC[C@@]1(C)[C@@H]3O[C@H](CN4CCC4)O[C@@H]3C3=C(C)[C@@H](OC(=O)[C@H](O)[C@@H](NC(=O)OC(C)(C)C)c4ncccc4F)C[C@@](O)([C@@H](OC(=O)c4ccccc4)[C@@H]12)C3(C)C
result: 170 µg/mL
